Test system: SNB-78 CNS
Assay Notes: NCI tumour cell line growth inhibition, 48 h
Experimental Endpoint: TGI

Compound: CN(C)c1ccc(/C=C/C=C\C2=CC(=C\C=C/C=C3C=CC(=[N+](C)C)C=C3)/Sc3ccccc32)cc1
TGI: > 100 µM

Below is a list of compounds. For each, state its recorded TGI.
1. CC1(Sc2ccccc2)CN(Cc2ccccc2)C1=O (stereo not drawn)
2. C=C(C)[C@@H]1CC=C(CO)CC1
3. COC(=O)[C@@H]1CSC(=S)N1C(=O)C[C@H]1CC=CC[C@H]1CC(=O)Sc1ccccc1
4. CN(C)c1ccc2c(NCCCCCCNc3ccnc4cc(N(C)C)ccc34)ccnc2c1
5. NS(=O)(=O)c1cc2c(cc1Cl)NC(C(=O)c1cc(=O)c3ccc(O)cc3o1)=NS2(=O)=O

Result:
["> 100 µM", "988 µM", "49.2 µM", "> 100 µM", "> 100 µM"]

---

System: HOP-62 NSCLC
Assay Notes: NCI tumour cell line growth inhibition, 48 h
Where a SMILES comes first, the peptide text is derived from it. The star is where a group is joined. Cbz = O=C(OCc1ccccc1)*; OBn = c1ccc(CO*)cc1
Experimental Endpoint: TGI

Molecule: O=c1n(/N=C/c2ccccc2)c(=O)n2n1C1C=CC2CC1
Result: > 100 µM
--
Molecule: CCN(CC)CCOc1ccc(C(=C(C)c2ccc(Cl)cc2)c2ccc(OCCN(CC)CC)cc2)cc1
Result: 2.91 µM
--
Molecule: COC(=O)CNC(=O)C(C)NC(=O)C(CC(=O)OCc1ccccc1)NC(=O)OCc1ccccc1 (stereo not drawn) (Cbz-Asp(OBn)-Ala-Gly-OMe; configuration not given here)
Result: > 100 µM
--
Molecule: O=C1NC(N2CCOCC2)=N/C1=C\c1cccs1
Result: > 100 µM
--
Molecule: CCOC(C[C@H](O)[C@H]1COC(=S)S1)OCC
Result: > 100 µM
--
Molecule: CC1Oc2cc3c(-c4c(O)cc(O)c5c(O)c6c(cc45)OC(C)C(C)C6=O)c(O)cc(O)c3c(O)c2C(=O)C1C (configuration not stated)
Result: 1.23 µM

Moving on to the next molecule.
Q: Request - read-out TGI | tested on HOP-62 NSCLC | molecule CC(=O)OCC(=O)[C@@]1(O)CC[C@H]2[C@@H]3CCC4=CC(=O)[C@H](C)C[C@]4(C)[C@H]3[C@@H](O)C[C@@]21C
Result: > 100 µM

---

What GI50 was measured for each of the following?
Test system: HS 578T breast
Assay Notes: NCI tumour cell line growth inhibition, 48 h

// worked examples, GI50 included
Compound: C=C(C)[C@@H]1CC[C@]2(C(=O)NCCCN)CC[C@]3(C)[C@H](CC[C@@H]4[C@@]5(C)CC[C@H](O)C(C)(C)[C@@H]5CC[C@]43C)[C@@H]12
GI50: 40.5 µM

Compound: CCN=C1C=CC(=C(c2ccc(N(C)C)cc2)c2ccc(N(C)C)cc2)c2ccccc21
GI50: 0.149 µM

Compound: COc1ccc(Cn2nc(-c3cc(OC)c(OC)c(OC)c3)c3c2CCc2cnoc2-3)cc1OC
GI50: 2.22 µM

Compound: C=CCC(N[C@H](CO)C(C)C)c1cn(C(=O)OCC)c2ccccc12 (stereo not given in full)
GI50: 22.7 µM

Moving on to the next compound.
Q: Quick check: GI50 of CN(C)CCCNC(=O)c1cc(NC(=O)CCNS(=O)(=O)c2ccc3c(c2)C(=O)c2ccccc2C3=O)cn1C ?
Result: > 100 µM
